Structures can show the parent of a compound that is named as a salt.
Below, each of the compounds is paired with its reported melting point value.
measuredMetric: melting point

[[record]]
compound = "O=C(O)c1cccc(Cc2c(-c3ccc(OC(F)F)c(OC4CC4)c3)[nH]c3cn[nH]c(=O)c23)c1 [Example 27]"
recordedresult = "155 to 163 °C"

[[record]]
compound = "O=c1[nH]ncc2[nH]c(-c3ccc(OC(F)F)c4c3C=CC3(CCCC3)O4)c(Cl)c12 [Example 57]"
recordedresult = "> 300 °C"

[[record]]
compound = "CC(C)c1c(-c2ccc(OC(F)F)c(OC3CC3)c2)[nH]c2cn[nH]c(=O)c12 [Example 7]"
recordedresult = "265 to 267 °C"

[[record]]
compound = "CC(C)Oc1cc(-c2[nH]c3cn[nH]c(=O)c3c2Cl)ccc1OC(F)F [Example 40]"
recordedresult = "248 to 262 °C"

[[record]]
compound = "CC(C)OCc1c(-c2ccc(OC(F)F)c(OC3CC3)c2)[nH]c2cn[nH]c(=O)c12 [Example 60]"
recordedresult = "196 to 197 °C"

[[record]]
compound = "O=c1[nH]ncc2[nH]c(-c3ccc(OC(F)F)c(OC4CC4)c3)c(Cl)c12 [Example 2]"
recordedresult = "281 to 283 °C"

[[record]]
compound = "O=c1[nH]ncc2[nH]c(-c3ccc(OC(F)F)c(OC4CC4)c3)c(CC3CC3)c12 [Example 15]"
recordedresult = "204 to 206 °C"

[[record]]
compound = "O=c1[nH]ncc2[nH]c(-c3ccc(OC(F)F)c(OC4CCC4)c3)c(-c3ccccc3)c12 [Example 34]"
recordedresult = "280 to 284 °C"

[[record]]
compound = "CC(C)(C)OCc1c(-c2ccc(OC(F)F)c(OC3CC3)c2)[nH]c2cn[nH]c(=O)c12 [Example 64]"
recordedresult = "> 300 °C"

[[record]]
compound = "Cc1c(-c2ccc(OC(F)F)c3c2C=CC(C)(C)O3)[nH]c2cn[nH]c(=O)c12 (as salt: HCl) [Example 53]"
recordedresult = "> 300 °C"

[[record]]
compound = "O=c1[nH]ncc2[nH]c(-c3ccc(OC(F)F)c(OC4CC4)c3)c(-c3ccccc3)c12 [Example 17]"
recordedresult = "138 to 143 °C"

[[record]]
compound = "O=c1[nH]ncc2[nH]c(-c3ccc(OC(F)F)c(OC4CC4)c3)c(Cc3ccccc3)c12 [Example 19]"
recordedresult = "215 to 217 °C"

[[record]]
compound = "O=c1[nH]ncc2[nH]c(-c3ccc(OC(F)F)c(OC4CC4)c3)c(CO)c12 [Example 10]"
recordedresult = "190 to 191 °C"

[[record]]
compound = "C#Cc1c(-c2ccc(OC(F)F)c(OC3CC3)c2)[nH]c2cn[nH]c(=O)c12 [Example 16]"
recordedresult = "> 300 °C"

[[record]]
compound = "O=c1[nH]ncc2[nH]c(-c3ccc(OC(F)F)c4c3C=CC(C3CC3)O4)cc12 (stereo not drawn) [Example 58]"
recordedresult = "232 to 242 °C"

[[record]]
compound = "CCCc1c(-c2ccc(OC(F)F)c(OC3CC3)c2)[nH]c2cn[nH]c(=O)c12 [Example 6]"
recordedresult = "208 to 210 °C"

[[record]]
compound = "COc1ccc(-c2cc3c(=O)[nH]ncc3[nH]2)c2c1OC1(CCCC1)C2 [Example 50]"
recordedresult = "265 °C (dec.)"

[[record]]
compound = "COc1ccc(-c2[nH]c3cn[nH]c(=O)c3c2Cl)cc1OCC1CC1 [Example 47]"
recordedresult = "256 to 258 °C"

[[record]]
compound = "O=c1[nH]ncc2[nH]c(-c3ccc(OC(F)F)c(OC4CC4)c3)c(Br)c12 [Example 3]"
recordedresult = "267 to 270 °C (dec.)"

[[record]]
compound = "COc1ccc(Cc2c(-c3ccc(OC(F)F)c(OC4CC4)c3)[nH]c3cn[nH]c(=O)c23)cn1 [Example 29]"
recordedresult = "220 to 221 °C"

[[record]]
compound = "O=c1[nH]ncc2[nH]c(-c3ccc(OC(F)F)c(OC4CC4)c3)c(COCC3CC3)c12 [Example 59]"
recordedresult = "170 to 172 °C"

[[record]]
compound = "CC(C)COCc1c(-c2ccc(OC(F)F)c(OC3CC3)c2)[nH]c2cn[nH]c(=O)c12 [Example 62]"
recordedresult = "162 to 164 °C"

[[record]]
compound = "CCCCCCc1c(-c2ccc(OC(F)F)c(OC3CC3)c2)[nH]c2cn[nH]c(=O)c12 [Example 69]"
recordedresult = "186 to 188 °C"

[[record]]
compound = "O=c1[nH]ncc2[nH]c(-c3ccc(OC(F)F)c(OC4CC4)c3)c(-c3cn[nH]c3)c12 [Example 18]"
recordedresult = "294 to 297 °C"

[[record]]
compound = "COc1cccc(Cc2c(-c3ccc(OC(F)F)c(OC4CC4)c3)[nH]c3cn[nH]c(=O)c23)n1 [Example 28]"
recordedresult = "224 to 226 °C"

[[record]]
compound = "O=c1[nH]ncc2[nH]c(-c3ccc(OC(F)F)c(OC4CC4)c3)cc12 [Example 1]"
recordedresult = "287 to 292 °C"

[[record]]
compound = "COc1ccc(-c2cc3c(=O)[nH]ncc3[nH]2)cc1OC1CCCC1 [Example 46]"
recordedresult = "290 °C (dec.)"

[[record]]
compound = "O=c1[nH]ncc2[nH]c(-c3ccc(OC(F)F)c(OC4CC4)c3)c(Cc3cccc(F)c3)c12 [Example 23]"
recordedresult = "208 to 210 °C"

[[record]]
compound = "COc1ccc(-c2[nH]c3cn[nH]c(=O)c3c2Br)cc1OC1CC1 [Example 43]"
recordedresult = "293 to 296 °C (dec.)"

[[record]]
compound = "O=c1[nH]ncc2[nH]c(-c3ccc(OC(F)F)c(OC4CC4)c3)c(CCc3ccccc3)c12 [Example 21]"
recordedresult = "199 to 201 °C"

[[record]]
compound = "C#CCc1c(-c2ccc(OC(F)F)c(OC3CC3)c2)[nH]c2cn[nH]c(=O)c12 [Example 71]"
recordedresult = "245 to 246 °C"

[[record]]
compound = "CC(C)Cc1c(-c2ccc(OC(F)F)c(OC3CC3)c2)[nH]c2cn[nH]c(=O)c12 [Example 9]"
recordedresult = "239 to 241 °C"

[[record]]
compound = "O=c1[nH]ncc2[nH]c(-c3ccc(OC(F)F)c(OC4CCC4)c3)cc12 [Example 31]"
recordedresult = "289 to 291 °C"


----------
Below, each of the molecules is paired with its reported Monkey Maximum non-emesis dose value.
System: cynomulgus monkey
Test: Emetic action test in cynomulgus monkey
Conditions: suspended in 0.5% aqueous methyl cellulose, administered nasally; emesis observed for 24 hours; 3 or 4 monkeys per dose
measuredMetric: Monkey Maximum non-emesis dose

[[record]]
molecule = "CCc1c(-c2ccc(OC(F)F)c(OC3CC3)c2)[nH]c2cn[nH]c(=O)c12 [Example 5]"
testedtarget = "cynomulgus monkey"
measuredmetric = "Monkey Maximum non-emesis dose"
recordedresult = ">30 mg/kg"

[[record]]
molecule = "O=C(Nc1c(Cl)cncc1Cl)c1ccc(OC(F)F)c(OCC2CC2)c1 [compound A, reference compound]"
testedtarget = "cynomulgus monkey"
measuredmetric = "Monkey Maximum non-emesis dose"
recordedresult = "0.1 mg/kg"

[[record]]
molecule = "CC(C)COCc1c(-c2ccc(OC(F)F)c(OC3CC3)c2)[nH]c2cn[nH]c(=O)c12 [Example 62]"
testedtarget = "cynomulgus monkey"
measuredmetric = "Monkey Maximum non-emesis dose"
recordedresult = ">10 mg/kg"

[[record]]
molecule = "COCCc1c(-c2ccc(OC(F)F)c(OC3CC3)c2)[nH]c2cn[nH]c(=O)c12 [Example 66]"
testedtarget = "cynomulgus monkey"
measuredmetric = "Monkey Maximum non-emesis dose"
recordedresult = ">10 mg/kg"

[[record]]
molecule = "CCOCc1c(-c2ccc(OC(F)F)c(OC3CC3)c2)[nH]c2cn[nH]c(=O)c12 [Example 12]"
testedtarget = "cynomulgus monkey"
measuredmetric = "Monkey Maximum non-emesis dose"
recordedresult = "3 mg/kg"

[[record]]
molecule = "CC#CCc1c(-c2ccc(OC(F)F)c(OC3CC3)c2)[nH]c2cn[nH]c(=O)c12 [Example 72]"
testedtarget = "cynomulgus monkey"
measuredmetric = "Monkey Maximum non-emesis dose"
recordedresult = ">10 mg/kg"


----------
Below, each of the compounds is paired with its reported IC50 value.
Target: PDE4
Test: Measurement of PDE4 enzyme inhibiting action
Type: biochemical, human
Settings: PDE4 enzyme solution from polymorphonuclear leukocytes of healthy volunteer; 0.2 μM [3H]cAMP, 30° C., 30 minutes; read-out: PDE4 inhibition IC50 value
measuredMetric: IC50 (nM)

[[record]]
compound = "O=c1[nH]ncc2[nH]c(-c3ccc(OC(F)F)c(OC4CC4)c3)c(C(O)c3ccccc3)c12 (stereo not shown)"
measuredmetric = "IC50"
recordedresult = 0.23

[[record]]
compound = "O=c1[nH]ncc2[nH]c(-c3ccc(OC(F)F)c4c3CC3(CCCC3)O4)cc12"
measuredmetric = "IC50"
recordedresult = 3.5

[[record]]
compound = "CCCCCCc1c(-c2ccc(OC(F)F)c(OC3CC3)c2)[nH]c2cn[nH]c(=O)c12"
measuredmetric = "IC50"
recordedresult = 0.38

[[record]]
compound = "CC1(C)C=Cc2c(-c3[nH]c4cn[nH]c(=O)c4c3Cl)ccc(OC(F)F)c2O1"
measuredmetric = "IC50"
recordedresult = 8

[[record]]
compound = "CC(C)C#CCc1c(-c2ccc(OC(F)F)c(OC3CC3)c2)[nH]c2cn[nH]c(=O)c12"
measuredmetric = "IC50"
recordedresult = 0.23

[[record]]
compound = "CCOCc1c(-c2ccc(OC(F)F)c(OC3CC3)c2)[nH]c2cn[nH]c(=O)c12"
measuredmetric = "IC50"
recordedresult = 4.6

[[record]]
compound = "O=c1[nH]ncc2[nH]c(-c3ccc(OC(F)F)c(OC4CC4)c3)c(COC3CCC3)c12"
measuredmetric = "IC50"
recordedresult = 0.65

[[record]]
compound = "CC(C)Oc1cc(-c2[nH]c3cn[nH]c(=O)c3c2Br)ccc1OC(F)F"
measuredmetric = "IC50"
recordedresult = 9.9

[[record]]
compound = "O=c1[nH]ncc2[nH]c(-c3ccc(OC(F)F)c(OC4CCC4)c3)c(Br)c12"
measuredmetric = "IC50"
recordedresult = 1.8

[[record]]
compound = "CCCCc1c(-c2ccc(OC)c(OC3CC3)c2)[nH]c2cn[nH]c(=O)c12"
measuredmetric = "IC50"
recordedresult = 2.6

